src = patent US20210388107A1

pKd: recorded values
Biological target: T1, human SIRPα1 extracellular domain 1-370, Avi-FXa-Fc tag (human, biotinylated)
T1 construct: also called huSIRPα1; v2
T1 sequence (chain, as listed by the source limits assumed): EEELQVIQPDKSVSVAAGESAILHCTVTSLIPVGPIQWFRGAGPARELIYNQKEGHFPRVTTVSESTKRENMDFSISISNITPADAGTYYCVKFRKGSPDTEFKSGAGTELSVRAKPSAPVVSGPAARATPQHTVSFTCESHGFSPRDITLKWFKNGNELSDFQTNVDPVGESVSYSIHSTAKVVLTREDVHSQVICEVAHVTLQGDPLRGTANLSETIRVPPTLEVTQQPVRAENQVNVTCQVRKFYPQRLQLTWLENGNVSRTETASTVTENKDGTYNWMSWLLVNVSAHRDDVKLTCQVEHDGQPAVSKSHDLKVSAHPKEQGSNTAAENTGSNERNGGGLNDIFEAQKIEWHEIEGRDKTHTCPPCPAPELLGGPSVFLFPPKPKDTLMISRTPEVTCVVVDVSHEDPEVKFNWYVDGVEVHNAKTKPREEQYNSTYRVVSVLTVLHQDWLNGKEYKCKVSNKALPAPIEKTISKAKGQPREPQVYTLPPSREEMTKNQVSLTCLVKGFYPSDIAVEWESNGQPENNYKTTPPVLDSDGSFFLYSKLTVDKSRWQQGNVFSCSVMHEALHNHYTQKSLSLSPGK
Experiment: SPR, captured biotinylated antigen
pKd: −log10 of the molar value.
testReadout: pKd

- 29AM4-5-LALA (IgG1) (antibody, V domains shown, human IgG1 LALA, kappa; also called 29AM4-5huIgG1LALA) VH: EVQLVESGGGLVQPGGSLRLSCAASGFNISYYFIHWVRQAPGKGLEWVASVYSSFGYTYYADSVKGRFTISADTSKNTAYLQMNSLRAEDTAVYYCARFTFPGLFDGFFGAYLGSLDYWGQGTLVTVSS VL: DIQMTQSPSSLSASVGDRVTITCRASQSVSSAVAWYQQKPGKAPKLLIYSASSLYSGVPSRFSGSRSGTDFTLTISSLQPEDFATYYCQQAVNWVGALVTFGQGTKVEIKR: 10.64
- humanized anti-SIRPα antibody 10 (antibody, human IgG1, kappa, L234A L235A, V domains shown, human IgG1 LALA, kappa; also called mAb 10) VH: RQLVESGGGLVQPGGSLRLSCAASGFSLSSHGISWVRQAPGKGLEWVGTIGTGGITYYASWAKGRFTGSKTSSTAYMELSSLRAEDTAVYYCARGSAWNDPFDIWGQGTLVTVSS VL: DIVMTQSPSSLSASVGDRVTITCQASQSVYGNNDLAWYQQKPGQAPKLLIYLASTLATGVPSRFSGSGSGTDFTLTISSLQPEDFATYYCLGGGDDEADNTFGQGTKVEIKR: 9.17
